biological target: T1, human S100A4 dimer (Homo sapiens, UniProt P26447 1-101); assay: SPR, Biacore T200, 25 C; S100A4 captured via anti-His, antibody as analyte (0.78-200 nM), 1:1 fit
T1 construct: In the SPR it was captured on an anti-His surface, so it carried a His tag; also called recombinant human S100A4 dimer
T1 sequence (P26447 whole entry, one chain of several): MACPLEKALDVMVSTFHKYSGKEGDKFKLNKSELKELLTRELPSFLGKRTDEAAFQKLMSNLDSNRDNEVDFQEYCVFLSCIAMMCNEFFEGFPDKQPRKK
pKd: −log10 of the molar value.
# Lookup of reported pKd keyed by entry
Measurement Kind: pKd

>>> value("VH1_H43Ser + H44Lys VL3_L44Leu (antibody, V domains shown) VH: QVQLQESGPGLVKPSQTLSLTCTVSGDSFTNDYYWNWIRQHPGSKLEWIGHIGYGGNINYNPSLKNRLSMSRDTSKNQFSLKLSSVTAADTAVYYCTRESFYDGYPFDYWGQGTLVTVSS VL: DIQMTQSPSSLSASVGDRVTITCRASQDIRNYLNWYQQKPGKALKLLLYYTSRLHSGVPSRFSGSGSGTDYTLTISSLQPEDFATYYCQQGNSLPRTFGGGTKVEIK")
8.67
>>> value("VH0 VL3 (antibody, V domains shown) VH: DVQLQESGPGLVKPSQSLSLTCSVTGDSFTNDYYWNWIRQFPGSKLEWMGHIGYGGNINYNPSLKNRISITRDTSKNQFFLRLTSVTTEDTATYYCTRESFYDGYPFDYWGQGTLVTVSA VL: DIQMTQSPSSLSASVGDRVTITCRASQDIRNYLNWYQQKPGKAPKLLLYYTSRLHSGVPSRFSGSGSGTDYTLTISSLQPEDFATYYCQQGNSLPRTFGGGTKVEIK")
8.84
>>> value("VH1_H43Ser VL3 (antibody, V domains shown) VH: QVQLQESGPGLVKPSQTLSLTCTVSGDSFTNDYYWNWIRQHPGSGLEWIGHIGYGGNINYNPSLKNRLSMSRDTSKNQFSLKLSSVTAADTAVYYCTRESFYDGYPFDYWGQGTLVTVSS VL: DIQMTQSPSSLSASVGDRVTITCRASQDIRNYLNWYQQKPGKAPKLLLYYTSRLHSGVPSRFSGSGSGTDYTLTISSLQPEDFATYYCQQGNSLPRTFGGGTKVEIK")
8.49
>>> value("6B12, mouse monoclonal IgG1 anti-S100A4 antibody (antibody, V domains shown, Mouse IgG1; also called 6B12 mIgG1; 6B12 IgG1) VH: DVQLQESGPGLVKPSQSLSLTCSVTGDSFTNDYYWNWIRQFPGSKLEWMGHIGYGGNINYNPSLKNRISITRDTSKNQFFLRLTSVTTEDTATYYCTRESFYDGYPFDYWGQGTLVTVSA VL: DIQMTQTTSSLSASLGDRVTISCRASQDIRNYLNWYQQRPGGTLKLLIYYTSRLHSGVPSRFSGSGSGTDYSLTISNLEQEDIATYFCQQGNSLPRTFGGGTKLEIK")
8.78
>>> value("VH1 VL0 (antibody, V domains shown) VH: QVQLQESGPGLVKPSQTLSLTCTVSGDSFTNDYYWNWIRQHPGKGLEWIGHIGYGGNINYNPSLKNRLSMSRDTSKNQFSLKLSSVTAADTAVYYCTRESFYDGYPFDYWGQGTLVTVSS VL: DIQMTQTTSSLSASLGDRVTISCRASQDIRNYLNWYQQRPGGTLKLLIYYTSRLHSGVPSRFSGSGSGTDYSLTISNLEQEDIATYFCQQGNSLPRTFGGGTKLEIK")
8.94
>>> value("VH1_H43Ser + H44Lys VL3 (antibody, V domains shown) VH: QVQLQESGPGLVKPSQTLSLTCTVSGDSFTNDYYWNWIRQHPGSKLEWIGHIGYGGNINYNPSLKNRLSMSRDTSKNQFSLKLSSVTAADTAVYYCTRESFYDGYPFDYWGQGTLVTVSS VL: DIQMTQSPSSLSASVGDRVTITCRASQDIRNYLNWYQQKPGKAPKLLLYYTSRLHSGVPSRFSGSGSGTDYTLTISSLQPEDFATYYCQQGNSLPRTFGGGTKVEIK")
8.55
>>> value("VH1_H44Lys VL3 (antibody, V domains shown) VH: QVQLQESGPGLVKPSQTLSLTCTVSGDSFTNDYYWNWIRQHPGKKLEWIGHIGYGGNINYNPSLKNRLSMSRDTSKNQFSLKLSSVTAADTAVYYCTRESFYDGYPFDYWGQGTLVTVSS VL: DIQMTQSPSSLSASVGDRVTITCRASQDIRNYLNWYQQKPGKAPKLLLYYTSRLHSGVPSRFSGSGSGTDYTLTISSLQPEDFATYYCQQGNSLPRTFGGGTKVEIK")
8.56
>>> value("VH1_H43Ser VL3_L44Leu (antibody, V domains shown) VH: QVQLQESGPGLVKPSQTLSLTCTVSGDSFTNDYYWNWIRQHPGSGLEWIGHIGYGGNINYNPSLKNRLSMSRDTSKNQFSLKLSSVTAADTAVYYCTRESFYDGYPFDYWGQGTLVTVSS VL: DIQMTQSPSSLSASVGDRVTITCRASQDIRNYLNWYQQKPGKALKLLLYYTSRLHSGVPSRFSGSGSGTDYTLTISSLQPEDFATYYCQQGNSLPRTFGGGTKVEIK")
8.62
>>> value("VH1 VL3_L43Thr (antibody, V domains shown) VH: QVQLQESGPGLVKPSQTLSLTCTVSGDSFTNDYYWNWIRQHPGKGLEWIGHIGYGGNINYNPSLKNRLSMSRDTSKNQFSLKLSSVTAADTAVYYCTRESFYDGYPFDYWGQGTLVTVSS VL: DIQMTQSPSSLSASVGDRVTITCRASQDIRNYLNWYQQKPGKTPKLLLYYTSRLHSGVPSRFSGSGSGTDYTLTISSLQPEDFATYYCQQGNSLPRTFGGGTKVEIK")
8.33
>>> value("VH1 VL3_L42Gly (antibody, V domains shown) VH: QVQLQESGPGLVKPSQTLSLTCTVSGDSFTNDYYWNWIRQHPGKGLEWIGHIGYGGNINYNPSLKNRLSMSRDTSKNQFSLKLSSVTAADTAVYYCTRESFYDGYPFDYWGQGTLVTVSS VL: DIQMTQSPSSLSASVGDRVTITCRASQDIRNYLNWYQQKPGGAPKLLLYYTSRLHSGVPSRFSGSGSGTDYTLTISSLQPEDFATYYCQQGNSLPRTFGGGTKVEIK")
8.52
